Values compiled from patent US20160257697A1.

System: HCV replicon 2B
Assay: microbe, parasite or virus in culture
Format: cell-based, Hepatitis C virus (HCV)
Details: read-out: 2B IC50; HCV replicon 2B; Replicon Assay A
Endpoint label: IC50

1. COC(=O)N[C@H](C(=O)N1CCC[C@H]1c1ncc(-c2cc(C)c3c(c2)OC(c2cc4c(s2)CCC4)n2c-3cc3cc(-c4cnc([C@@H]5CCCN5C(=O)[C@@H](NC(=O)OC)C5C[C@@H](C)O[C@@H](C)C5)[nH]4)ccc32)[nH]1)C(C)C (single isomer, unassigned) [Compound 548] ... 0.0231 nM
2. COC(=O)N[C@H](C(=O)N1CCC[C@H]1c1ncc(-c2cc(F)c3c(c2)OC(c2cc4c(s2)CCC4)n2c-3cc3cc(-c4cnc([C@@H]5C[C@H]6C[C@H]6N5C(=O)[C@@H](NC(=O)OC)C5C[C@@H](C)O[C@@H](C)C5)[nH]4)ccc32)[nH]1)C(C)C (single isomer, unassigned) [Compound 552] ... 0.409 nM
3. COC(=O)N[C@H](C(=O)N1CCC[C@H]1c1ncc(-c2ccc3c(c2)OC(c2ccc(C4CC4)s2)n2c-3cc3cc(-c4cnc([C@@H]5CCCN5C(=O)[C@@H](NC(=O)OC)C(C)C)[nH]4)ccc32)[nH]1)C(C)C (single isomer, unassigned) [Compound 704] ... 1.07 nM

GET /values?readout=IC50&item= COC(=O)N[C@H](C(=O)N1C[C@H](F)C[C@H]1c1ncc(-c2ccc3c(c2)OC(c2ccc(C)s2)n2c-3cc3cc(-c4cnc([C@@H]5C[C@H]6C[C@H]6N5C(=O)[C@@H](NC(=O)OC)C(C)C)[nH]4)ccc32)[nH]1)C(C)C (single isomer, unassigned) [Compound 708]
3.05 nM

Cool, now COC(=O)N[C@H](C(=O)N1CCC[C@H]1c1ncc(-c2cc(F)c3c(c2)OC(c2ccc(C(F)(F)F)s2)n2c-3cc3cc(-c4cnc([C@@H]5CCCN5C(=O)[C@@H](NC(=O)OC)C5CCOCC5)[nH]4)ccc32)[nH]1)C(C)C (single isomer, unassigned) [Compound 654]
0.0061 nM

// next record COC(=O)NC(C(=O)N1CCC[C@H]1c1ncc(-c2ccc3c(c2)cc2n3C(c3ccc(CC4CC4)s3)Oc3cc(-c4cnc([C@@H]5CCCN5C(=O)[C@@H](NC(=O)OC)C(C)C)[nH]4)cc(F)c3-2)[nH]1)C1CCOC(C)(C)C1 (single isomer, unassigned) [Compound 407]
0.26 nM
